Target: 5-hydroxytryptamine receptor 2B (Homo sapiens, UniProt P41595); note: assay procedure not described here
Sequence (P41595 whole entry): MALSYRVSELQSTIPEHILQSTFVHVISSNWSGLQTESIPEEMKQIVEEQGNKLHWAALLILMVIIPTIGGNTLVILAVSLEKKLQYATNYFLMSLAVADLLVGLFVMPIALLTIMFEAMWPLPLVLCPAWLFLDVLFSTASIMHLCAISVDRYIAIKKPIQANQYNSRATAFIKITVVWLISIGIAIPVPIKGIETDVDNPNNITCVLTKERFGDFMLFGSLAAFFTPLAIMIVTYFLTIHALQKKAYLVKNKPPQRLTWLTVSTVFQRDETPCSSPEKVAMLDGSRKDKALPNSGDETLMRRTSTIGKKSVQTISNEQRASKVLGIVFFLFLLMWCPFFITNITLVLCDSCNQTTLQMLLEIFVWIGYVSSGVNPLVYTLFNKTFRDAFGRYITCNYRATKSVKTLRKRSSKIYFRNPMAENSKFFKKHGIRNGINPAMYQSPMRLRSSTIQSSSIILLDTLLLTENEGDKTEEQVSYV
Type: functional, cell-based
reported_endpoint: AC50

CC(C)C(=O)Nc1ccc([N+](=O)[O-])c(C(F)(F)F)c1 [FLUTAMIDE]
> 10 µM
Nc1nc2ccc(OC(F)(F)F)cc2s1
> 30 µM
Nc1nc(N)c2nc(-c3ccccc3)c(N)nc2n1
> 30 µM
CCCOc1ccc(C(=O)OCCN(CC)CC)cc1N
> 30 µM
CC(C)(N)Cc1ccc(Cl)cc1
> 10 µM
C1=Cc2cccc(OCC3CNCCO3)c2C1 (configuration not stated)
> 30 µM
C#CCN[C@@H]1CCc2ccccc21
> 30 µM
Cc1ccc(C(=O)c2cc(O)c(O)c([N+](=O)[O-])c2)cc1
> 10 µM
O=C(C[S+]([O-])C(c1ccccc1)c1ccccc1)NO (configuration not stated)
> 30 µM
CN1CCN(C(=O)OC2c3nccnc3C(=O)N2c2ccc(Cl)cn2)CC1 (configuration not stated)
> 10 µM
CN1C(=O)CC(C)(c2ccccc2)C1=O (configuration not stated) [METHSUXIMIDE]
> 10 µM
C#C[C@]1(O)CC[C@H]2[C@@H]3CCC4=CCCC[C@@H]4[C@H]3CC[C@@]21C
> 30 µM
NC(N)=Nc1nc(CSCCC(N)=NS(N)(=O)=O)cs1
> 10 µM
[H]/N=C(/N)c1ccc(NCc2nc3cc(C(=O)N(CCC(=O)O)c4ccccn4)ccc3n2C)cc1
> 30 µM
CN(C/C=C/c1ccccc1)Cc1cccc2ccccc12
> 10 µM
C=C1C[C@@H]2[C@H](CC[C@]3(C)C(=O)CC[C@@H]23)[C@@]2(C)C=CC(=O)C=C12
> 10 µM
COc1c(C)c2c(c(O)c1C/C=C(\C)CCC(=O)OCCN1CCOCC1)C(=O)OC2 [MYCOPHENOLATE MOFETIL]
> 30 µM
NS(=O)(=O)c1cc(-c2nnn[nH]2)c(NCc2cccs2)cc1Cl [AZOSEMIDE]
> 30 µM
Cc1cc(-c2ccccc2)nnc1NCCN1CCOCC1
> 10 µM
CCCCCCCCCCCC[N+](C)(C)CCOc1ccccc1
> 30 µM
C[C@H]1C[C@@H]2[C@H]([C@@H](O)C[C@@]3(C)[C@H]2CC[C@]3(O)C(=O)CO)[C@@]2(C)C=CC(=O)C=C12
> 10 µM
COc1ccc(C(=O)N2CCN(c3ccc4c(c3)CCC(=O)N4)CC2)cc1OC
> 30 µM
O=C(O)CCCc1ccccc1
> 30 µM
CN1C(=O)CC(c2ccccc2)C1=O (configuration not stated) [PHENSUXIMIDE]
> 10 µM
CC(=O)N(CC(O)CO)c1c(I)c(C(=O)NCC(O)CO)c(I)c(C(=O)NCC(O)CO)c1I (configuration not stated) [IOHEXOL]
> 10 µM
CCOC(=O)[C@H](CCc1ccccc1)N[C@H]1CCCN2CCC[C@@H](C(=O)O)N2C1=O
> 30 µM
N[C@@H](CSCC(=O)O)C(=O)O
> 30 µM
CC(=O)N[C@H]1[C@H]([C@H](O)[C@H](O)CO)OC(C(=O)O)=C[C@@H]1N=C(N)N
> 30 µM
Nc1ccc(/N=N/c2ccccc2)c(N)n1
> 30 µM
COc1ccc2c(c1)C(=O)N(CCc1ccc(S(=O)(=O)NC(=O)NC3CCCCC3)cc1)C(=O)C2(C)C
> 30 µM
Cc1c(O)c(=O)ccn1C
> 30 µM
NS(=O)(=O)c1cc2c(cc1Cl)NC(CC1CCCC1)NS2(=O)=O (configuration not stated) [CYCLOPENTHIAZIDE]
> 30 µM
CN[C@@H](C)[C@H](O)c1ccccc1
> 10 µM
CC[C@H](C)C(=O)O[C@H]1C[C@H](O)C=C2C=C[C@H](C)[C@H](CC[C@@H](O)C[C@@H](O)CC(=O)O)[C@H]21
> 30 µM
O=C(O)CCn1c2c(c3ccccc31)C[C@H](NS(=O)(=O)c1ccc(F)cc1)CC2
> 10 µM
COC(=O)N[C@H](C(=O)N1CCC[C@H]1c1nc(-c2ccc(-c3ccc(-c4c[nH]c([C@@H]5CCCN5C(=O)[C@@H](NC(=O)OC)C(C)C)n4)cc3)cc2)c[nH]1)C(C)C
> 30 µM
O=P(O)(O)C(O)(Cc1cccnc1)P(=O)(O)O
> 30 µM
